# TESTED TARGET: CB1 cannabinoid receptors (CNR1 cAMP Hunter cell line) (Homo sapiens)
# Sequence (P21554 whole entry): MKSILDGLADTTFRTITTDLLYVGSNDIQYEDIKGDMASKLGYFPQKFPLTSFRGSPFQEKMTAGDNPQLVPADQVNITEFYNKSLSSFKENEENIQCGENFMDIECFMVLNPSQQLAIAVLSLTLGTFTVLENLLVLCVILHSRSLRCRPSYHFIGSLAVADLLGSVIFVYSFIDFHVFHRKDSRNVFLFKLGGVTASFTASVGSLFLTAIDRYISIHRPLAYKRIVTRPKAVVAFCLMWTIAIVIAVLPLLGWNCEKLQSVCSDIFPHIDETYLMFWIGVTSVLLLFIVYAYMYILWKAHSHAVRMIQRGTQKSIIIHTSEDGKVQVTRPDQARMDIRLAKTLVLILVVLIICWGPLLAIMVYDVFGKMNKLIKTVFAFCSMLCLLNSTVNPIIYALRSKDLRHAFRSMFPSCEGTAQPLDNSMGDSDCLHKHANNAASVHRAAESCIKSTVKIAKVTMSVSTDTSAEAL
# PROCEDURE DETAILS: cAMP Hunter (DiscoveRx HitHunter cAMP XS+) allosteric modulation assay with CP55,940 at EC20

>  <COMPOUND>
O=[N+]([O-])CC(c1ccc(N2CCCCC2)cc1)c1c(-c2ccccc2)[nH]c2ccccc12 (centres unmarked)

>  <OUTPUT UNIT>
µM

>  <RELATION SIGN>
=

>  <EC50>
0.59

$$$$
>  <COMPOUND>
O=[N+]([O-])CC(c1ccccc1)c1c(-c2ccc3ccccc3c2)[nH]c2ccccc12 (centres unmarked)

>  <OUTPUT UNIT>
µM

>  <RELATION SIGN>
=

>  <EC50>
0.744

$$$$
>  <COMPOUND>
O=[N+]([O-])CC(c1ccccc1)c1c(-c2ccc(Cl)cc2)[nH]c2ccccc12 (centres unmarked)

>  <OUTPUT UNIT>
µM

>  <RELATION SIGN>
=

>  <EC50>
0.65

$$$$
>  <COMPOUND>
O=[N+]([O-])CC(c1ccccc1)c1c(-c2ccc(F)c(Cl)c2)[nH]c2ccccc12 (centres unmarked)

>  <OUTPUT UNIT>
µM

>  <RELATION SIGN>
=

>  <EC50>
0.411

$$$$
>  <COMPOUND>
O=[N+]([O-])C[C@H](c1ccccn1)c1c(-c2ccccc2)[nH]c2ccccc12 (single isomer, unassigned)

>  <OUTPUT UNIT>
µM

>  <RELATION SIGN>
=

>  <EC50>
0.3

$$$$
>  <COMPOUND>
O=[N+]([O-])CC(c1ccc(-c2ccccc2)cc1)c1c(-c2ccccc2)[nH]c2ccccc12 (centres unmarked)

>  <OUTPUT UNIT>
µM

>  <RELATION SIGN>
>

>  <EC50>
10

$$$$
>  <COMPOUND>
O=[N+]([O-])CC(c1ccccc1)c1c(-c2ccccc2)[nH]c2ccc(Cl)cc12 (centres unmarked)

>  <OUTPUT UNIT>
µM

>  <RELATION SIGN>
=

>  <EC50>
1.01

$$$$
>  <COMPOUND>
O=[N+]([O-])CC(c1ccccc1)c1cn(-c2ccccc2)c2ccccc12 (centres unmarked)

>  <OUTPUT UNIT>
µM

>  <RELATION SIGN>
=

>  <EC50>
0.92

$$$$
